koff listing for selected binders.
# Measured On: T1, human ApoC3 (huApoC3), native protein purified from human serum (human, UniProt P02656 21-99)
# T1 construct: Athens Research and Technology; randomly biotinylated in some assays; also called Apolipoprotein C3
# Assay Remarks: SPR Biacore, huApoC3 on chip, scFv-Fc as analyte
Readout Kind: koff (s⁻¹)

- Binder: "7A9 scFv-Fc (Fc fusion, scFv-Fc format) VH: EVQVQESGPGLVKPSQTLSLTCTVSGASITNRRYAWTWIRQPPGKGLEWMGVIVYDGNTHVSPSLRSRTSISRDTSKNQFSLQLSSLTPEDTAVYYCARVLLLRDPLSLDYWGQGTQVTVSS VL: SSALTQPPSMSGTLGKTLTISCAGTSSDIGAYNFVSWYQQLPGTAPKLLIYDIDKRASGIPDRFSGSKSGNTASLSISGLQSEDEADYYCAAYGSRDNVVFGGGTHLTVL"
  Quantity Unit: "s⁻¹"
  Value: 0.00067
- Binder: "8A4 scFv-Fc (Fc fusion, scFv-Fc format) VH: QVQLVESGGGLVQPGGSLKVSCTASGFTFNNYAMRWVRQAEGKGLEWVSSIDSGGDRTKYGDSVKGRFSISRDNAKNTVYLQMDALKPEDTGVYYCVSQGYIFWGQGAQVTVSS VL: ATMLTQSPGSLSVVPGESASISCKASQSLVHSDGKTYLYWLLQKPGQRPQLLIYQVSNHESGVPDRFTGSGSGTDYTLKISGVKAEDAGVYYCAQATYYPLTFGQGTKVELK"
  Quantity Unit: "s⁻¹"
  Value: "7.02e-05"
- Binder: "10B6 scFv-Fc (Fc fusion, scFv-Fc format) VH: EVQLVESGGGLVQPGGSLRLSCAASGFTFSSYAMRWVRQAPGKGLEWISSINIDGGSTRYTDSVQGRFTVSRDNAKNTLYLQMNNLKPEDTGIYYCTIQGYIYWGQGTQVTVSS VL: ATMLTQSPGSLSIVPGESASISCKASQSLVHSNGVIYFYWLLQKPGQSPQRLIYQVSNRDSGVPDRFTGSGSGTDFTLKISGVKAEDAGVYYCAQGTYYPHSFGSGTRLQIK"
  Quantity Unit: "s⁻¹"
  Value: "6.64e-05"
- Binder: "6A6 scFv-Fc (Fc fusion, scFv-Fc format) VH: EVQLVESGGGLVQPGGSLRLSCAASGFTFSSYAGRWVRQVPGKGLEWVSSINAGGGSTSYADSVKGRFTISRDNAKNTLYLQMNSLKPEDTAKYYCTQNSYRYWGQGTRVAVSS VL: DVVLTQTPGSLSVVPGESASISCKASQSLIHTDGKTYLYWLLQKPGQRPQLLIYQVSSHESGVPDRFTGSGSGTDFTLKISGVKAEDAGVYYCAQATYNPRTFGQGTKLEIK"
  Quantity Unit: "s⁻¹"
  Value: 0.000186
